Recorded measurements of inhibition in vivo at 1 mg/kg, one per entry
# System: NGF-induced vascular hyper permeability
# test_method_notes: Suppression of rat NGF-induced vascular hyper permeability (in vivo test, Evans Blue)
# experimental_parameters: oral, 12 hours after administration, read-out: Rates of Suppression for Vascular Hyper Permeability (%)
Enter your answer as a number in %; do not include the unit.

CCCNc1ncc(-c2ccc(Oc3ncc(NC(=O)Nc4cc(C(F)(F)F)ccc4S(C)(=O)=O)cn3)cc2)s1: 100
CCCNc1ncc(-c2ccc(Oc3ncc(NC(=O)Nc4cc(C(F)(F)F)ccc4-n4ccc(C(F)(F)F)n4)cn3)cc2)s1: 96
CCNc1ncc(-c2ccc(Oc3ncc(NC(=O)Nc4cc(C(F)(F)F)cnc4Oc4ccccc4)cn3)cc2)s1: 71

Just so you know, measured inhibition in vivo at 1 mg/kg for O=C(Nc1cnc(Oc2ccc(-c3cnc(N4CCCC4=O)s3)cc2)nc1)Nc1cc(C(F)(F)F)cnc1-c1ccccc1 came out at 88

----------
# tested_system: c-Kit (Homo sapiens (Human))
# Sequence (P10721 26-976): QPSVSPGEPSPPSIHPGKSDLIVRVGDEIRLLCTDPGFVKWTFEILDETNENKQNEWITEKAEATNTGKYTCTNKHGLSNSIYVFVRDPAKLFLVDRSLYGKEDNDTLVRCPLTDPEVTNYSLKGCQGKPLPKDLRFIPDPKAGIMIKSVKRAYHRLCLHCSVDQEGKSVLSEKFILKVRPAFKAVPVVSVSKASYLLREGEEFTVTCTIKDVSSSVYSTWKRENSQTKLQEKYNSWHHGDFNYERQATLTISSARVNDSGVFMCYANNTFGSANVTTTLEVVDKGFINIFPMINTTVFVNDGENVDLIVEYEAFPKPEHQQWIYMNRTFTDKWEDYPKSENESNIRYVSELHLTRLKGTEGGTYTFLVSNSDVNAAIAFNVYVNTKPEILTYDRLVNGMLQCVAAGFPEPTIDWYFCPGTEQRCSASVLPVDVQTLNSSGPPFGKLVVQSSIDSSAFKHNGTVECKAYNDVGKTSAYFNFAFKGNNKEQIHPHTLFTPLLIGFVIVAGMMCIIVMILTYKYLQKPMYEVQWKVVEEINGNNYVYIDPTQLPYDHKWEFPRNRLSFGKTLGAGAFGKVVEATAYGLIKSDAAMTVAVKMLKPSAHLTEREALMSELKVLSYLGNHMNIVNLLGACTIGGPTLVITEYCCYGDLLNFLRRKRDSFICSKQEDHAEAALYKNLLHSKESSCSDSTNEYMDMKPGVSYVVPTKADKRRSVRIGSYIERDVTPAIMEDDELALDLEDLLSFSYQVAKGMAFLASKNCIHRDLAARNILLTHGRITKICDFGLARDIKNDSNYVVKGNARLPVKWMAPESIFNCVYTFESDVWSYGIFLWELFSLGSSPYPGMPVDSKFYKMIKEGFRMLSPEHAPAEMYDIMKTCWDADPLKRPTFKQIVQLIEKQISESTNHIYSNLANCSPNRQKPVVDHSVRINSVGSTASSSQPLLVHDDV
# test_method_notes: Enzyme inhibition activity test for kinases other than Trk (selectivity test): c-Kit
# Format: biochemical
# experimental_parameters: test concentration 3 μM; read-out: Inhibition Rate (%) c-Kit
attribute_measured: inhibition at 3 µM (%)
Enter your answer as a number in %; do not include the unit.

CCNc1ncc(-c2ccc(Oc3ncc(NC(=O)Nc4cc(C(F)(F)F)cnc4-c4ccc(C)cc4)cn3)cc2)s1: 31
O=C(Nc1cnc(Oc2ccc(-c3cnc(N4CCCC4=O)s3)cc2)nc1)Nc1cc(C(F)(F)F)cnc1-c1ccccc1: 7.2
Cc1cccc(-c2ncc(C(F)(F)F)cc2NC(=O)Nc2cnc(Oc3ccc(-c4cnc(N5CCCC5=O)s4)cc3)nc2)c1: 9.1
CCCNc1ncc(-c2ccc(Oc3ncc(NC(=O)Nc4cc(C(F)(F)F)ccc4Cl)cn3)cc2)s1: 19

Just so you know, measured inhibition at 3 µM for O=C(Nc1cnc(Oc2ccc(-c3cnc(N4CCCC4=O)s3)cc2)nc1)Nc1cc(C(F)(F)F)ccc1-c1cccnc1 came out at 28

----------
# tested_system: b-Raf (Homo sapiens (Human), UniProt P15056)
# Sequence (P15056 whole entry): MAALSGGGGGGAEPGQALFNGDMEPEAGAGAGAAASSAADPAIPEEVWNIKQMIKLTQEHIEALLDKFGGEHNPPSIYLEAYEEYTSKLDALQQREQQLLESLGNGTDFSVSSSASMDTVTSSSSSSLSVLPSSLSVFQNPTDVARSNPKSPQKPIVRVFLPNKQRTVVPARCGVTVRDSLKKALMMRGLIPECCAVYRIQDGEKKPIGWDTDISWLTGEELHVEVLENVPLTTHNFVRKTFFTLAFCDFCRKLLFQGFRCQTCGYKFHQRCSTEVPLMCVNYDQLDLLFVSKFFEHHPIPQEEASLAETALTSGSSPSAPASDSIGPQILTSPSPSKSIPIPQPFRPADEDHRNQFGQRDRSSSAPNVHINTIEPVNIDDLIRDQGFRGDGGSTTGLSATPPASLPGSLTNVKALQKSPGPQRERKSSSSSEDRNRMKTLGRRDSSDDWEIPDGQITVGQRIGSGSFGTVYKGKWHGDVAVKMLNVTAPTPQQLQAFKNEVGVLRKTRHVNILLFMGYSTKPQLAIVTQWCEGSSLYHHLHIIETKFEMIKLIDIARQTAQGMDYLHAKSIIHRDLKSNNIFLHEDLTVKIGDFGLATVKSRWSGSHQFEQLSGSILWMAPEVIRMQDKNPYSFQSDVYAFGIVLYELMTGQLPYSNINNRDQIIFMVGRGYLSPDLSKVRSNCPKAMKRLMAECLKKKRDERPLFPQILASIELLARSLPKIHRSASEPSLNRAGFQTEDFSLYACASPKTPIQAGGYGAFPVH
# test_method_notes: Enzyme inhibition activity test for kinases other than Trk (selectivity test): b-Raf
# Assay type: biochemical
# experimental_parameters: test concentration 3 μM; read-out: Inhibition Rate (%) b-Raf
attribute_measured: inhibition at 3 µM (%)
Enter your answer as a number in %; do not include the unit.

Cc1cccc(-c2ncc(C(F)(F)F)cc2NC(=O)Nc2cnc(Oc3ccc(-c4cnc(N5CCCC5=O)s4)cc3)nc2)c1 [Example 57]: 18
O=C(Nc1cnc(Oc2ccc(-c3cnc(N4CCCC4=O)s3)cc2)nc1)Nc1cc(C(F)(F)F)cnc1-c1ccccc1 [Example 54]: 17
O=C(Nc1cnc(Oc2ccc(-c3cnc(N4CCCC4=O)s3)cc2)nc1)Nc1cc(C(F)(F)F)ccc1-c1cccnc1 [Example 84-3]: 36

Just so you know, measured inhibition at 3 µM for CCCNc1ncc(-c2ccc(Oc3ncc(NC(=O)Nc4cc(C(F)(F)F)ccc4Cl)cn3)cc2)s1 [Example 85-117] came out at 13

Just so you know, measured inhibition at 3 µM for CCNc1ncc(-c2ccc(Oc3ncc(NC(=O)Nc4cc(C(F)(F)F)cnc4-c4ccc(C)cc4)cn3)cc2)s1 [Example 23] came out at 23

----------
# tested_system: UniProt P04629
# Sequence (P04629 33-796): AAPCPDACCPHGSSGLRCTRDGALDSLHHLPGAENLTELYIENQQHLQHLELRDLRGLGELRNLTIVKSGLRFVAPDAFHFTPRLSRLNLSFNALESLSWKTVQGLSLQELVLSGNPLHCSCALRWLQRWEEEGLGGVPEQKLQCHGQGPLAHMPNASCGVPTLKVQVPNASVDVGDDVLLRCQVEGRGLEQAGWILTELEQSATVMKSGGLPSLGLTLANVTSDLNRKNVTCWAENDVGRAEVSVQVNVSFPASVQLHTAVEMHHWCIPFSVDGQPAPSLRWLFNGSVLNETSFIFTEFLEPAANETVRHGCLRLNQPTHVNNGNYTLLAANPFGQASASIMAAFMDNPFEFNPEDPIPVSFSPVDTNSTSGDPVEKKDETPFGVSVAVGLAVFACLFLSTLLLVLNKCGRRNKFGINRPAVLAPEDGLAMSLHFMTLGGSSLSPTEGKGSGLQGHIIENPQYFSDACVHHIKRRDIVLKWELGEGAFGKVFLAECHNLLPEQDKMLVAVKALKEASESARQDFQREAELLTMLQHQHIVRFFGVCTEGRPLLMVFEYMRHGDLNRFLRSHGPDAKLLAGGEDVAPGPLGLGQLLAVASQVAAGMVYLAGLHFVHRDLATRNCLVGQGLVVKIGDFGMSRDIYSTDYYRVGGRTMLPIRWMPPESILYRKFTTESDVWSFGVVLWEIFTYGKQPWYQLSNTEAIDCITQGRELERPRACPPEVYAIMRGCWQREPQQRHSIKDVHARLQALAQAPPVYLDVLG
# test_method_notes: Measurement of TrkA enzyme-inhibiting activity (LanthaScreen TR-FRET kinase assay)
# Assay type: biochemical
# experimental_parameters: final ATP 150 μM, read-out: TrkA inhibitory activity (IC50; μM)
attribute_measured: IC50 (µM)
Enter your answer as a number in µM; do not include the unit.

Cc1cccc(-c2ncc(C(F)(F)F)cc2NC(=O)Nc2cnc(Oc3ccc(-c4cnc(N5CCCC5=O)s4)cc3)nc2)c1 [Example 57]: 0.03
CC(C)(C)c1cc(NC(=O)Nc2cnc(Oc3ccc(-c4cnc(N5CCCC5=O)s4)cc3)nc2)n(-c2ccc(S(N)(=O)=O)cc2)n1 [Example 66-72]: 0.05
CCNc1ncc(-c2ccc(Oc3ncc(NC(=O)Nc4cc(C(F)(F)F)cnc4Oc4ccccc4)cn3)cc2)s1 [Example 48]: 0.12
O=C(Nc1cnc(Oc2ccc(-c3cnc(N4CCCC4=O)s3)cc2)nc1)Nc1cc(C(F)(F)F)cnc1-c1ccc(C(F)(F)F)nc1 [Example 50]: 0.04
CCCNc1ncc(-c2ccc(Oc3ncc(NC(=O)Nc4cc(C(F)(F)F)ccc4Cl)cn3)cc2)s1 [Example 85-117]: 0.02

Just so you know, measured IC50 for Cc1ccc(-n2nc(C(C)(C)C)cc2NC(=O)Nc2cnc(Oc3ccc(-c4cnc(N5CCCC5=O)s4)cc3)nc2)cc1C [Example 65-1] came out at 0.08

Just so you know, measured IC50 for CC(C)c1ncc(C(F)(F)F)cc1NC(=O)Nc1cnc(Oc2ccc(-c3cnc(N4CCCC4=O)s3)cc2)nc1 [Example 84-41] came out at 0.09
